Listed next: entries and their corresponding protease stability score.
Procedure Summary: protease stability score; higher = more stable; yeast display proteolysis, trypsin and chymotrypsin;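 note: relative to predicted unfolded state with 0 unfolded-like and 1 meaning tenfold more protease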
# respond with the number and nothing more

Some sequences with known protease stability score results, for comparison:
SEDDETIERASRLLVEDHDTGDWESWEKNADPNMRLVIGDKDVVGRENVVEHLHRLRKKMGVKHVHLRVESIEVQGDKIRQDGRLLIIVNGQELRIEVRIVAIKVNGQWINRMVDVK 1.08
RDMEHIMKELIHFVLHAVMTGDEEKMRQYADPHVKLNYNGVEVVGMEEILKIWRHIRIEIEDHTVEHISVVDGKLRSDTRVDVHIEFNGRHIRENLHTHVIIYKVDGRWVFKEVRIK 1.84
SEDDDLAKDFVSLMLHEFRTGNEESMSKLVDPHVRLHIGDKTYVGRENVSRILKKELRDYGIDHMHIDHLRVQGDKVHIHTTYRQGDKEMETHFVILKVDGKWFMHEIEIR 1.88
SEEEHHVVRMMELLIDLLMTGDEEVFDSLVDPDVKSNINGVHSVGMESINEIFRRYVDFFKNVKVDVHLRDREAQGDKHITYGVRIERFDGKQFTIDTRLELKVVNGRIKDVKVDIK 1.46

Tell me the measured protease stability score of SEIKENLHRFFERWQEVLRTGDERHIRDMADPNVRLDVNGKEIHGRELFANWIREHIERVDHISVHIHDMDIYGNKAKIRGELELDQGDKKHHLDLEIVTTKVDGKWILRSVHVR , please.
2.12

====

Listed next: entries and their corresponding protease stability score.
Procedure Summary: protease stability score; higher = more stable; yeast display proteolysis, trypsin and chymotrypsin;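 note: relative to predicted unfolded state with 0 unfolded-like and 1 meaning tenfold more protease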

Some sequences with known protease stability score results, for comparison:
SEEEKAFKESYDVWIEALKTGNEEESREMFDPTPLQVVNGQELHGRDHIEQEVSEWRIDHVDIDELRLQGDKAILHGRVSGHINGKRVKFEEKLVMHKIDGRWFIRSVIVR 0.333
NELDKHTKEFAERWIKSVETGDWRSEEHLLDPHVKLETKVNGRDVRVVGREEVHRYLRELHEELGVDKVEFITRRIRLQGDKIDIDGELRINGRTHEAHIHLDIINGRIHSVRLQWT 1.44
DEMEETTERITRLIHHYHRTGDWRLLSDLFDPHAKSEVNGVRLHGWHEMREFFENEMRELGIENVRFRYHLHDYRIFDGRVDLDVRLEIRIGDKEDHMESHIHTEKVNGQWRLRTLSLN 0.412
DDDEKDLEKLIREVMEIIWTGDEDTFRHFMDPNTRLFIDGKIIVGMEEIMRRWHELLRKFGVDKIEVRLDDFKIIGNKIELHFEIMIGDKRFKTQTIFEKIDGRWILHSRFIH 2.01
DEIERLLKEVMRIFYENFQTGDEESLKELADPNVRYQIGDKSDHGREHLWRVQHEVHRRMGIKHTHLLIKSVEIVDGVAVIHGSLRLDFDGRHIEWHLHLRLKLIDGKIKEVEHELV 1.36
DEIEEEAKEMTKRILEDIKTGDEDSIFKLMDPNVKLVVGEKIHIGRETASKFFRKHWEDLGITRVESHLRTTHLIDGRVHVHSETNWNGVRIEVIIEIEKVNGRWVIREIHIHMH 1.29

Tell me the measured protease stability score of DDDHLRKVEDFMRAQLEGDPDRLKQLADPNVRMNVGEKKVHGMQDIATEQASTYKTARYEIKSLDSKTEGDKVVITMRVQADNNGQPHDETFHLKARLENGKIVEQSKENDG , please.
-0.531

Tell me the measured protease stability score of HEDYEDLDKLREHLLTAMKTGDWEVMYRNFDPHVRLLYNGKDTHGREDLRRLVEEMRTRDVRIIITREEIQGNKVFMHGTLEVDGNWNGVDRHIHREVTHIMVKIDGRWIVTVERIR , please.
0.899

Tell me the measured protease stability score of DEDEKESKEAIEISFRLWRTGNEEEIHNYADPRARLEVFINGRLIQRHGREDFSRFMNEQLKRLGIDHIHIERLEIQGEKVIVDIHITVNGQHFRLHQDARKVDGRWIIHDVKINLL , please.
2.65

Tell me the measured protease stability score of HEEEEHIWRMFKLFIHYLLTGDPDMLARYADPNVRLDINGQEWHGREEMFEMLKIFFDELRIKHFHLRRWRVVDGVAHVDVETHGNYNGREETRKVHIHVVIFNGRMKELVIKIS , please.
2.66

Tell me the measured protease stability score of SESKHDLIRIFEERSEAHETGDEDFIMELIDPHVKIIIGDKTFHGREKYLEWEKLFGVKHVHFHVKDVRFQGDKVHVNGILRIRVGDKHEEFQVHILITKVNGVWIIKEIEIN , please.
1.35

Tell me the measured protease stability score of SEDEEISKKIIERILETMRTGDEDIMEHLVDPDAKFHDEDHHDHGREAFRWWSEFVKRIAGHDKVEIRQQHVKFQGNKVILHTIVIQGNKIYELIIVMEKFDGRWSISTVHIR , please.
1.43

Tell me the measured protease stability score of SDLNQVFRESLEHHLHALETGDWRELYRLADPNVLVIVGDKEIHGMEEWSRILEEEMRRVKGMRIEINPTDIDFQGNKVRAHTRLHVEVDGRSVETDTEHESKKVNGRWILKRLTIR , please.
1.16

Tell me the measured protease stability score of DEEEKYVEDIAREFLHAMRTGDEEWNKELADPHVRMHLHQGDYILNLHGRDLFTRVIRYLVDQWRLEIRIENFDSIGNKIEVHGTIILKQGDKSIKRKSIIHIDVVNGRLKEVHIHLQ , please.
0.152

Tell me the measured protease stability score of DERERDAEDALDELREIWRTGDWELIHQMLDPEVRLDINGVRLVGREHWVDEVRRLFHKVPGMTYHLKDVHFQGNKMHVDILSRYDGRESKVDLILLKINGKWLNKEVRIREE , please.
0.807

Tell me the measured protease stability score of DDEKKHALEVVRKYFRAFLTGDEDESFELMDPRVKVDINGRDIHGWEEYRKWMEEIRIHDHRVKEEHFRVYDGRLIIIIRGELNGEINGRRFEFEFNIIIVVAKVDGQWRTESFKMEIH , please.
1.31

Tell me the measured protease stability score of DENRQDLEHFHKVLLKLLETGDENMIARLADPNVREDVNGVDNHGMKDLERTLREIHERVDHIHHVHIHRVDVINGRAHLDGTLRGHVNGVSFQHRETVIYLKFNGRWVLHSVHLK , please.
1.2

Tell me the measured protease stability score of DEREEMVERFLTEWLRSLVTGDWEDSEKLFDPNVRIHVNGREFHGRHEAIKHFHELRIHKIELKSIDIQGNKAHVDVEVDGNVNGQNRIIKVNLFFKKVNGRWYFEQVEIH , please.
1.24

Tell me the measured protease stability score of SERDELVEKLMESALDFWRTGNEDLMERLLDPHVRLDINGREHHGREVVIKAFREIWMLLGIDHIDIHHVDIQGEYVHLDVRVKVNGKDTRSRIELIVVDGKITELIIRLR , please.
2.51

Tell me the measured protease stability score of DEEDRHAEEVFRTLIHAWHTGDEDTLKRMLDPDVKILIGDKDHHGRDFFAREMHEISKHLRVHFELHELDVINGRVHVHGTLVITINGREIRITVHIHVLIVDGRVKLQKWIKV , please.
0.583

Tell me the measured protease stability score of HEDERAFEHFIELLMHTLRTGDEELWKHLADPNYLLDVGDKHFIGRERVVEWIRHIRIKDVRVEHYKIQGDKAEIHTRVDGNIDGKELNLHSRFKMHKVDGRWLLEEVEFR , please.
2.22

Tell me the measured protease stability score of SEEEKEVQEYLERSIKDIRTGDEDELRRQLDPNYKLDVNGQKHIGMELWLKILSREVKEIRIDHVERHIEVINGRIDVKGELILNFNGREFRHHFEIHATKFNGRWVVDSMRVE , please.
1.15

The reported measurements were obtained from the NTF2 design screens of Basanta et al. (2020).
